Quick reference: TCF/Wnt firefly luciferase reporter signal of the listed items.
Tested on: DLD1
Assay: TCF/Wnt firefly luciferase reporter signal relative to plate median (fraction of plate median); higher = higher Wnt reporter signal
Conditions: 10 µM; treatment time 24 h; reporter: 7TFP
MEASURE: TCF/Wnt firefly luciferase reporter signal

>>> experimental_result("CN1CCN(c2ccc3nc(-c4c(N)c5c(F)cccc5[nH]c4=O)[nH]c3c2)CC1")
1.1
>>> experimental_result("CNC(=O)c1cc(Oc2ccc(NC(=O)Nc3cc(C(C)(C)C)nn3-c3ccc4ncccc4c3)c(F)c2)ccn1 [DCC-2036 (Rebastinib)]")
0.817
>>> experimental_result("CCCNC(=O)Nc1ccc(Oc2ncnc3cc(OC)c(OC)cc23)cc1Cl")
1.2
>>> experimental_result("CC(C)n1nc(-c2ccc3oc(N)nc3c2)c2c(N)ncnc21")
0.341
>>> experimental_result("CC1(COc2ccc3c(c2)ncn3-c2ccc3cccc(N4CCC(N)CC4)c3n2)COC1")
1.48
>>> experimental_result("CNC(=O)c1ccccc1Nc1nc(Nc2ccc(N3CCOCC3)cc2OC)ncc1Cl")
0.638
>>> experimental_result("CCN1CCN(c2ccc(Nc3cc(N(C)C(=O)Nc4c(Cl)c(OC)cc(OC)c4Cl)ncn3)cc2)CC1")
1.24
>>> experimental_result("CCOc1cc2ncc(C#N)c(Nc3ccc(OCc4ccccn4)c(Cl)c3)c2cc1NC(=O)/C=C/CN(C)C")
0.521
>>> experimental_result("N#CC(=C(/N)Sc1ccccc1N)/C(C#N)=C(\\N)Sc1ccccc1N")
1.73
>>> experimental_result("COc1cc(Nc2ncc(F)c(Nc3ccc4c(n3)NC(=O)C(C)(C)O4)n2)cc(OC)c1OC")
1.05
>>> experimental_result("Cc1cc(C)c(/C=C2\\C(=O)Nc3ccccc32)[nH]1 [Semaxanib (SU5416)]")
1.47
>>> experimental_result("CCCS(=O)(=O)Nc1ccc(F)c(C(=O)c2c[nH]c3ncc(-c4ccc(Cl)cc4)cc23)c1F")
1.14
>>> experimental_result("O=C(Nc1cc(C(F)(F)F)cc(C(F)(F)F)c1)c1cc(Cl)ccc1O")
0.473
>>> experimental_result("Cc1ccc([N+](=O)[O-])cc1S(=O)(=O)N(C)/N=C/c1cnc2ccc(Br)cn12")
0.358
>>> experimental_result("COc1cc2nccc(Oc3ccc(NC(=O)Nc4cc(C)on4)c(Cl)c3)c2cc1OC")
0.755
>>> experimental_result("Oc1cccc(-c2nc(N3CCOCC3)c3oc4ncccc4c3n2)c1")
0.717
>>> experimental_result("Cc1[nH]c(/C=C2\\C(=O)Nc3ccc(S(=O)(=O)Cc4c(Cl)cccc4Cl)cc32)c(C)c1C(=O)N1CCC[C@@H]1CN1CCCC1")
0.7
>>> experimental_result("O=c1cc(N2CCOCC2)oc2c(-c3ccccc3)cccc12")
1.11
>>> experimental_result("S=C(NCc1ccc2c(c1)OCO2)N1CCN(c2ncnc3c2oc2ccccc23)CC1")
1.07
>>> experimental_result("CCCCCCCCCCCCc1ccc(S(=O)(=O)Nc2nncs2)cc1")
0.981
>>> experimental_result("Cc1[nH]nc2ccc(-c3cncc(OC[C@@H](N)Cc4ccccc4)c3)cc12")
0.51
>>> experimental_result("C=CC(=O)Nc1cccc(Sc2nc(Nc3ccc(N4CCN(C)CC4)cc3)ncc2Cl)c1")
1.79
>>> experimental_result("CCOc1ccn(-c2ccc(F)cc2)c(=O)c1C(=O)Nc1ccc(Oc2ccnc(N)c2Cl)c(F)c1")
0.983
>>> experimental_result("FC(F)(F)c1ccc(/C=C/c2nc(COc3ccc(CCCCn4ccnn4)cc3)co2)cc1")
1
